Reported Kd values for the following sequences.
Target: FOS (Homo sapiens)
Sequence (P01100 137-200 limits assumed): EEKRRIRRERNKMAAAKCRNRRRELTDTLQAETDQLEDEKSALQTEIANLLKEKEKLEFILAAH
Assay: Direct-binding FRET assay
Parameters: made in house
Conditions: 37°C; N-terminal rhodamine design; mean or single; read-out: Kd
Where no end group is shown, it is not given here.

{"Primary sequence": "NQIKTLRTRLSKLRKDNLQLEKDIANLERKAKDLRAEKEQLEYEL [ATF4-d1]", "Kd": "> 1000 nM"}

(Q) Consider the sequence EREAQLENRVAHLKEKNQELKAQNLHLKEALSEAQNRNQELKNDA [XBP1-d1] and give its measured Kd.
(A) > 1000 nM

====

Target: BACH1 (Homo sapiens)
Sequence (O14867 557-620 limits assumed): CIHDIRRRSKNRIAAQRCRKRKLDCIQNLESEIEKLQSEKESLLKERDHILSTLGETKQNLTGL
Test: Direct-binding FRET assay
Design: made in house
Where no end group is shown, it is not given here.
Endpoint name: Kd

(Q) Consider the sequence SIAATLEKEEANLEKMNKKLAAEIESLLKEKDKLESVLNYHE [JUN-d1] and give its measured Kd.
(A) > 1000 nM

FYI, the data here is from paper PMC4335062.
